Where these numbers come from: ChEMBL document CHEMBL5316357

- Test description: Oral bioavailability in male minipig at 30 mg/kg by LC-MS/MS analysis
- Format: ADME, organism-based, Sus scrofa domesticus
- Run parameters: pig, in vivo
Recorded metric: bioavailability (%)

| Smiles | Recorded metric | Result unit | Endpoint result |
| --- | --- | --- | --- |
| CCOC(=O)C1=C(CN2CCN3C(=O)N(CC(C)(C)C(=O)O)C[C@@H]3C2)NC(c2nccs2)=N[C@H]1c1cccc(F)c1C | bioavailability | % | 20.6 |

###

- Test description: Tmax in male cynomolgus monkey at 30 mg/kg,po by LC-MS/MS analysis
- Format: ADME, organism-based, Macaca fascicularis
- Run parameters: in vivo

| Smiles | Tmax / h |
| --- | --- |
| CCOC(=O)C1=C(CN2CCN3C(=O)N(CC(C)(C)C(=O)O)C[C@@H]3C2)NC(c2nccs2)=N[C@H]1c1cccc(F)c1C | 2 |
